target_entity: hVN1R1 (Homo sapiens, UniProt Q9GZP7)
Construct: gene VN1R1
Sequence (Q9GZP7 whole entry): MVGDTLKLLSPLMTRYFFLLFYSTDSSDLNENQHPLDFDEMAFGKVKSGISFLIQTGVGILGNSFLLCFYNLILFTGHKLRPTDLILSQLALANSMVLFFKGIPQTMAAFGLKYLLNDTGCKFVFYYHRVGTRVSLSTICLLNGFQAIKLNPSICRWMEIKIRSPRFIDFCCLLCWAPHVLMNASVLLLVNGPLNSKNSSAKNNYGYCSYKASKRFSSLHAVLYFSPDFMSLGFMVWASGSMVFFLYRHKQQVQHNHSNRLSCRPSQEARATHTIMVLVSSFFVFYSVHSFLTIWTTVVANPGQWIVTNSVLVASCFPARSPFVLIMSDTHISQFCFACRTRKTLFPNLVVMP
test_details: label-free microscale thermophoresis (tryptophan fluorescence), purified receptor, heat-denatured control
Format: binding
pEC50: −log10 of the molar value.

molecule	pEC50
C=C(C)C1CC=C(C)C(O)C1 (mixture of isomers)	5.46
